# Test system: OVCAR-3
# Assay details: NCI tumour cell line growth inhibition, 48 h
The source made the active and inactive calls. Rule as the data show it: active = GI50 up to about 1.1 µM and inactive = higher.
Quantity measured: GI50

Consider the worked cases shown below.
COC(=O)C1=C(c2cc(OC)c(OC)c(OC)c2)OC(c2cc(OC)c(OC)c(OC)c2)C1COC(C)=O (stereo not given) : 33.7 µM (inactive)
CN1CCN(C2=NCCO2)CC1 : > 100 µM (inactive)
COc1ccc(OC)c(/C(C)=N/NC(N)=S)c1 : > 100 µM (inactive)
COC(=O)C1=C(C(=O)OC)c2cc(OC)ccc2C(C(=S)N(C)C)S1 (stereo not given) : > 100 µM (inactive)
CCC12CCCC(=O)N1C(CO)C(c1ccccc1)O2 (stereo not given) : > 100 µM (inactive)

Consider the following items and state reported GI50 for each.
1. O=C(C=P(c1ccccc1)(c1ccccc1)c1ccccc1)c1ccc(-c2ccc(F)cc2F)cc1
2. CCc1c(C)c(C#N)c(=S)n(C2OC(COC(C)=O)C(OC(C)=O)C(OC(C)=O)C2OC(C)=O)c1-c1ccccc1 (stereo not given)
3. Cc1ccc(S(=O)(=O)N/N=C2\C=CC3(CC2)C(=O)N(I)c2ccccc23)cc1 (stereo not given)

output:
1: 1.95 µM (inactive); 2: > 31.6 µM (inactive); 3: > 100 µM (inactive)

Consider the following items and state reported GI50 for each.
1. COc1ccc2c(C)cc(N/N=C/c3ccc(C)s3)nc2c1
2. O=C(N/N=C/c1cc(-c2ccccc2Cl)c(-c2ccccc2Cl)o1)c1ccncc1

output:
2.94 µM (inactive)
43.9 µM (inactive)

---

I'd appreciate it if you could supply GI50 values for the items below.
# Test system: HOP-62
# Assay details: NCI tumour cell line growth inhibition, 48 h
The source made the active and inactive calls. Cut-off read from the data, not from the text of the source: active = GI50 up to about 1.1 µM and inactive = higher.

Consider the following items and state reported GI50 for each.
1. COc1ccccc1/N=C(\N)N/N=C/c1c[nH]c2ccccc12
2. CC(C)(CC#N)c1cc(CC(C)(C)c2cc(CC(C)(C)c3cc(C(C)(C)C4(C)OCCO4)no3)no2)no1
3. CCOC(=O)NN(C(=O)OCC)C(=C(c1ccccc1)N1CCOCC1)N(NC(=O)OCC)C(=O)OCC
4. CC(NC(=O)c1ccc(OP(=O)(OCc2ccc([N+](=O)[O-])o2)N(C)CCCCCl)cc1)c1ccc(OCC2CCCCC2)c(C(N)=O)c1 (centres undefined)
5. CCc1c(C)c(C#N)c(=S)n(C2OC(COC(C)=O)C(OC(C)=O)C(OC(C)=O)C2OC(C)=O)c1-c1ccccc1 (centres undefined)
6. CC(Oc1ccccc1Cl)C(=O)NN1C(=O)CC(=O)N(c2ccc(Cl)cc2)C1=S (centres undefined)
7. Cc1cc(C)cc(Nc2cc(O)nc(O)n2)c1
8. O=C(CC(=O)N1N=C(n2ccc3ccccc32)CC1c1ccccc1)Nc1ccccc1Cl (centres undefined)

output:
16.3 µM (inactive)
27 µM (inactive)
> 100 µM (inactive)
7.05 µM (inactive)
15.8 µM (inactive)
46.3 µM (inactive)
> 100 µM (inactive)
> 100 µM (inactive)

input: Given the entry Nc1nc2c(nnn2C2C=C(CO)C(O)C2O)c(=O)[nH]1 (centres undefined) , report its measured GI50.
output: > 100 µM (inactive)

---

# Test system: EKVX
# Assay details: NCI tumour cell line growth inhibition, 48 h
Calls of active or inactive are those of the source. Cut-off read from the data, not from the text of the source: active = GI50 up to about 1.1 µM and inactive = higher.
I'd appreciate it if you could supply GI50 values for the items below.

Consider the worked cases shown below.
O=S1(=O)OCCOS(=O)(=O)C1(Br)Cc1ccccc1 : > 100 µM (inactive)
Cc1cnc2[nH]c(-c3ccccc3)cc(=O)c2c1 : 0.716 µM (active)
Cc1ccccc1-n1c(N)c(-c2nc3ccccc3[nH]2)sc1=S : 53.5 µM (inactive)
O=C(Nc1ccc(C(F)(F)F)cc1)NC(F)(F)F : > 100 µM (inactive)
CN(CCNC(=O)c1nn(C)c2c1Cc1ccccc1-2)CCNC(=O)c1nn(C)c2c1Cc1ccccc1-2 : 23.2 µM (inactive)

Next up:
input: Given the entry `c1ccc(CN2CCCN3CCN(CCCN(Cc4ccccc4)CC3)CC2)cc1` , report its measured GI50.
output: 41.9 µM (inactive)
